From: paper PMC9144445

Reported EC50 is given for each of the following compounds.
TARGET_OR_TEST_SYSTEM: mouse eIF4E (Mus musculus, UniProt P63073)
Sequence (P63073 whole entry): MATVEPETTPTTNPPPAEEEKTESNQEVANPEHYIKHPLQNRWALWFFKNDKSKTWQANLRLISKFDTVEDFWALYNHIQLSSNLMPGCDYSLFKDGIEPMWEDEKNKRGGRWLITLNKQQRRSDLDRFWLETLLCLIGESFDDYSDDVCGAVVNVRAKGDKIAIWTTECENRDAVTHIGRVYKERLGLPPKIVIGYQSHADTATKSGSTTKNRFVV
TEST_NAME: eIF4E competition binding assay with pyrene-labelled fluorescent probe
COND: mouse eIF4E 400 nM, pyrene-labelled probe 75 nM
READOUT_LABEL: EC50 (µM)

>>> value_measured("Nc1nc2c(c(=O)[nH]1)[n+](Cc1ccc(F)c(F)c1)cn2C1OC(COP(=O)([O-])O)C(O)C1O (stereo not drawn)")
39.9
>>> value_measured("Cc1cccc(C[n+]2cn([C@@H]3O[C@H](COP(=O)([O-])O)[C@@H](O)[C@H]3O)c3nc(N)[nH]c(=O)c32)c1")
22.6
>>> value_measured("Nc1nc2c(c(=O)[nH]1)[n+](Cc1ccc(C(F)(F)F)cc1)cn2[C@@H]1O[C@H](COP(=O)([O-])O)[C@@H](O)[C@H]1O")
118

* * *

TARGET_OR_TEST_SYSTEM: human cN-IIIA (Homo sapiens)
TEST_NAME: IC50 determination for cN-IIIA (MGP assay)
Assay type: biochemical
COND: m7GMP 100 µM, cN-IIIA 40 nM, 25 min, MGP assay
READOUT_LABEL: IC50

>>> value_measured("Cc1cccc(C[n+]2cn([C@@H]3O[C@H](COP(=O)([O-])O)[C@@H](O)[C@H]3O)c3nc(N)[nH]c(=O)c32)c1 [Compound 5a]")
"127 µM"
>>> value_measured("Nc1nc2c(c(=O)[nH]1)[n+](Cc1ccccc1)cn2[C@@H]1O[C@H](COP(=O)([O-])O)[C@@H](O)[C@H]1O [Compound 5]")
"113 µM"
>>> value_measured("Nc1nc2c(c(=O)[nH]1)[n+](Cc1ccc(F)c(F)c1)cn2C1OC(COP(=O)([O-])O)C(O)C1O (stereo not shown) [Compound 5d]")
"106 µM"
>>> value_measured("Nc1nc2c(c(=O)[nH]1)[n+](Cc1ccc(C(F)(F)F)cc1)cn2[C@@H]1O[C@H](COP(=O)([O-])O)[C@@H](O)[C@H]1O [Compound 5g]")
"42.5 µM"
